Assay: in vivo
Parameters: species or system mice
Conditions: male, SCID, mouse, iv, 730 kBq, total radioactivity, Biodistribution, Lungs
Residues, ends and D or L forms follow the SMILES beside them. *: point of attachment. DOTA = O=C(O)CN1CCN(CC(=O)O)CCN(CC(=O)*)CCN(CC(=O)O)CC1; X1 = Cc1ccc(CCCC(=O)NCCOCCOCCOCCOCC(=O)*)cc1; βAla = NCCC(=O)O
MEASURED ENDPOINT: tissue uptake at 48 h
Please answer in the form of a number followed by its unit of measurement.

Incoming: Item CC[C@H](C)[C@H](NC(=O)[C@H](Cc1ccc(O)cc1)NC(=O)[C@@H]1CCCN1C(=O)[C@H](CCCNC(=N)N)NC(=O)[C@H](CCCNC(=N)N)NC(=O)[C@H](CCCCNC(=O)COCCOCCOCCOCCNC(=O)CCCc1ccc(C)cc1)NC(=O)CCNC(=O)CCNC(=O)CCNC(=O)CN1CCN(CC(=O)O)CCN(CC(=O)O)CCN(CC(=O)O)CC1)C(=O)N[C@@H](CC(C)C)C(=O)O [[^177Lu]Lu-DT14D, metal not drawn] ({DOTA-βAla-βAla-βAla}-K(X1)RRPYIL-OH) has what recorded tissue uptake at 48 h?
Outgoing: 0.14 %ID/g

----------
Assay: in vivo
Parameters: species or system mice
Details: male, SCID, mouse, iv, 730 kBq, total radioactivity, Biodistribution, Intestines
Residues, ends and D or L forms follow the SMILES beside them. *: point of attachment. DOTA = O=C(O)CN1CCN(CC(=O)O)CCN(CC(=O)*)CCN(CC(=O)O)CC1; X1 = Cc1ccc(CCCC(=O)NCCOCCOCCOCCOCC(=O)*)cc1; βAla = NCCC(=O)O
MEASURED ENDPOINT: tissue uptake at 72 h (%ID/g)
The reply should be a number in %ID/g, with the unit left off.

Incoming: So what does the record say about tissue uptake at 72 h for CC[C@H](C)[C@H](NC(=O)[C@H](Cc1ccc(O)cc1)NC(=O)[C@@H]1CCCN1C(=O)[C@H](CCCNC(=N)N)NC(=O)[C@H](CCCNC(=N)N)NC(=O)[C@H](CCCCNC(=O)COCCOCCOCCOCCNC(=O)CCCc1ccc(C)cc1)NC(=O)CCNC(=O)CCNC(=O)CCNC(=O)CN1CCN(CC(=O)O)CCN(CC(=O)O)CCN(CC(=O)O)CC1)C(=O)N[C@@H](CC(C)C)C(=O)O [[^177Lu]Lu-DT14D, metal not drawn] ({DOTA-βAla-βAla-βAla}-K(X1)RRPYIL-OH) ?
Outgoing: 0.27

----------
Experiment: in vivo
Parameters: species or system mice
Conditions: male, SCID, mouse, iv, total radioactivity, Tumor/Kidneys ratio
Residues, ends and D or L forms follow the SMILES beside them. *: point of attachment. DOTA = O=C(O)CN1CCN(CC(=O)O)CCN(CC(=O)*)CCN(CC(=O)O)CC1; X1 = Cc1ccc(CCCC(=O)NCCOCCOCCOCCOCC(=O)*)cc1; βAla = NCCC(=O)O
MEASURED ENDPOINT: tissue to tissue ratio at 1 h
Output spec: single numeric token, no unit.

Incoming: Fill in the blank: the reported tissue to tissue ratio at 1 h of CC[C@H](C)[C@H](NC(=O)[C@H](Cc1ccc(O)cc1)NC(=O)[C@@H]1CCCN1C(=O)[C@H](CCCNC(=N)N)NC(=O)[C@H](CCCNC(=N)N)NC(=O)[C@H](CCCCNC(=O)COCCOCCOCCOCCNC(=O)CCCc1ccc(C)cc1)NC(=O)CCNC(=O)CCNC(=O)CCNC(=O)CN1CCN(CC(=O)O)CCN(CC(=O)O)CCN(CC(=O)O)CC1)C(=O)N[C@@H](CC(C)C)C(=O)O [[^67Ga]Ga-DT14D, metal not drawn] ({DOTA-βAla-βAla-βAla}-K(X1)RRPYIL-OH) is ____.
Outgoing: 1.62

----------
Assay: in vivo
Set-up: species or system mice
Details: male, SCID, mouse, iv, 730 kBq, total radioactivity, Biodistribution, Liver
Excerpt: The distribution of [^67Ga]Ga/[^111In]In/[^177Lu]Lu-DT14D was investigated in male severe combined immunodeficiency (SCID) mice (49 mice in total, 6 weeks of age on arrival date, 22 ± 4 g, NCSR “Demokritos” Animal House, Athens, Greece) bearing NTS1R-positive AsPC-1 xenografts in their flanks. […] The animals were euthanized at predetermined time intervals, dissected and blood samples, organs of interest, and tumors were collected, weighed, and counted in the gamma counter. […]
Residues, ends and D or L forms follow the SMILES beside them. *: point of attachment. DOTA = O=C(O)CN1CCN(CC(=O)O)CCN(CC(=O)*)CCN(CC(=O)O)CC1; X1 = Cc1ccc(CCCC(=O)NCCOCCOCCOCCOCC(=O)*)cc1; βAla = NCCC(=O)O
MEASURED ENDPOINT: tissue uptake at 72 h

Incoming: Any idea what its tissue uptake at 72 h is? The compound is CC[C@H](C)[C@H](NC(=O)[C@H](Cc1ccc(O)cc1)NC(=O)[C@@H]1CCCN1C(=O)[C@H](CCCNC(=N)N)NC(=O)[C@H](CCCNC(=N)N)NC(=O)[C@H](CCCCNC(=O)COCCOCCOCCOCCNC(=O)CCCc1ccc(C)cc1)NC(=O)CCNC(=O)CCNC(=O)CCNC(=O)CN1CCN(CC(=O)O)CCN(CC(=O)O)CCN(CC(=O)O)CC1)C(=O)N[C@@H](CC(C)C)C(=O)O [[^177Lu]Lu-DT14D, metal not drawn] ({DOTA-βAla-βAla-βAla}-K(X1)RRPYIL-OH)
Outgoing: 0.86 %ID/g

----------
Assay: in vivo
Design: species or system mice
Details: male, SCID, mouse, iv, total radioactivity, Biodistribution, Heart
Residues, ends and D or L forms follow the SMILES beside them. *: point of attachment. DOTA = O=C(O)CN1CCN(CC(=O)O)CCN(CC(=O)*)CCN(CC(=O)O)CC1; X1 = Cc1ccc(CCCC(=O)NCCOCCOCCOCCOCC(=O)*)cc1; βAla = NCCC(=O)O
MEASURED ENDPOINT: tissue uptake at 1 h
Answer with the value and then the unit.

Incoming: Query (molecule): CC[C@H](C)[C@H](NC(=O)[C@H](Cc1ccc(O)cc1)NC(=O)[C@@H]1CCCN1C(=O)[C@H](CCCNC(=N)N)NC(=O)[C@H](CCCNC(=N)N)NC(=O)[C@H](CCCCNC(=O)COCCOCCOCCOCCNC(=O)CCCc1ccc(C)cc1)NC(=O)CCNC(=O)CCNC(=O)CCNC(=O)CN1CCN(CC(=O)O)CCN(CC(=O)O)CCN(CC(=O)O)CC1)C(=O)N[C@@H](CC(C)C)C(=O)O [[^67Ga]Ga-DT14D, metal not drawn] ({DOTA-βAla-βAla-βAla}-K(X1)RRPYIL-OH) ; field requested: tissue uptake at 1 h
Outgoing: 2.86 %ID/g

----------
Assay: in vivo
Parameters: species or system mice
Conditions: male, SCID, mouse, iv, 730 kBq, total radioactivity, Tumor/Heart ratio
Residues, ends and D or L forms follow the SMILES beside them. *: point of attachment. DOTA = O=C(O)CN1CCN(CC(=O)O)CCN(CC(=O)*)CCN(CC(=O)O)CC1; X1 = Cc1ccc(CCCC(=O)NCCOCCOCCOCCOCC(=O)*)cc1; βAla = NCCC(=O)O
MEASURED ENDPOINT: tissue to tissue ratio at 48 h
Respond using a number only.

Incoming: I would be grateful if you could share the reported tissue to tissue ratio at 48 h for CC[C@H](C)[C@H](NC(=O)[C@H](Cc1ccc(O)cc1)NC(=O)[C@@H]1CCCN1C(=O)[C@H](CCCNC(=N)N)NC(=O)[C@H](CCCNC(=N)N)NC(=O)[C@H](CCCCNC(=O)COCCOCCOCCOCCNC(=O)CCCc1ccc(C)cc1)NC(=O)CCNC(=O)CCNC(=O)CCNC(=O)CN1CCN(CC(=O)O)CCN(CC(=O)O)CCN(CC(=O)O)CC1)C(=O)N[C@@H](CC(C)C)C(=O)O [[^177Lu]Lu-DT14D, metal not drawn] ({DOTA-βAla-βAla-βAla}-K(X1)RRPYIL-OH) .
Outgoing: 23

----------
Assay: in vivo
Design: species or system mice
Details: male, SCID, mouse, iv, 40 pmol, total radioactivity, Tumor/Blood ratio
Residues, ends and D or L forms follow the SMILES beside them. *: point of attachment. DOTA = O=C(O)CN1CCN(CC(=O)O)CCN(CC(=O)*)CCN(CC(=O)O)CC1; X1 = Cc1ccc(CCCC(=O)NCCOCCOCCOCCOCC(=O)*)cc1; βAla = NCCC(=O)O
MEASURED ENDPOINT: tissue to tissue ratio at 72 h
Output: the number by itself.

Incoming: So what's the measured tissue to tissue ratio at 72 h for this one? CC[C@H](C)[C@H](NC(=O)[C@H](Cc1ccc(O)cc1)NC(=O)[C@@H]1CCCN1C(=O)[C@H](CCCNC(=N)N)NC(=O)[C@H](CCCNC(=N)N)NC(=O)[C@H](CCCCNC(=O)COCCOCCOCCOCCNC(=O)CCCc1ccc(C)cc1)NC(=O)CCNC(=O)CCNC(=O)CCNC(=O)CN1CCN(CC(=O)O)CCN(CC(=O)O)CCN(CC(=O)O)CC1)C(=O)N[C@@H](CC(C)C)C(=O)O [[^177Lu]Lu-DT14D, metal not drawn] ({DOTA-βAla-βAla-βAla}-K(X1)RRPYIL-OH)
Outgoing: 29.8
